Test system: secreted APP
method-description: ELISA for secreted APP in SHSY5Y cells
Format: cell-based, human
measurement-context: Dose 20 uM, 16 hours

molecule | APP Secretion by SH-SY-5Y Cells
COc1ccc2c(c1)[C@@]1(C)CCN(C)C1N2C (single isomer, unassigned; (+)) [MES 9295, (+)-O-Methyleseroline] | 89.35 % vehicle control
CC1C(=O)N(C)c2ccc(O)cc21 (stereo not drawn) [MES 9292, 1,3-Dimethyl-5-hydroxyoxindole] | 100.15 % vehicle control
COc1ccc2c(c1)[C@@]1(C)CC[N+](C)(C)C1N2Cc1ccccc1.[I-] (stereo partly drawn) [MES 9234] | 98.8 % vehicle control
COC(=O)NCCC1C(=O)N(Cc2ccccc2)c2ccc(OC)cc21 (stereo not drawn) [MES 9317] | 122 % vehicle control
CNC(C)c1cccc(OC)c1 (stereo not drawn) [MES 9271] | 63.825 % vehicle control
CN1CC[C@]2(C)c3cc(O)ccc3N(C)C12 (stereo partly drawn) [MES 9230] | 4.4 % vehicle control
COc1ccc2c(c1)[C@](C)(CCN)C(=O)N2C.Cl [MES 9314] | 109.4 % vehicle control
CC(Br)C(=O)N(Cc1ccccc1)c1ccc(O)cc1 (stereo not drawn) [MES 9306] | 124.8 % vehicle control
COc1ccc2c(c1)[C@@]1(C)CCN(Cc3ccccc3)C1N2Cc1ccccc1 (stereo partly drawn) [MES 9237] | 173.3 % vehicle control
